experiment description: Lipid levels in liver and spleen 48 hours after administration
Assay type: in vivo, rats
conditions used: Sprague-Dawley, rat, intravenous; liver, 48 hours after administration; read-out: Lipid in liver
observation type: concentration at 48 h (ng/g)

structure as smiles	unit text	reported value
CCCCCCCCCCCCN(CCCCCCCCCCCC)CCN(CCCCCCCCCCCC)CCN1CCN(CCN(CCCCCCCCCCCC)CCCCCC(=O)OCCCCC)CC1	ng/g	16800

[P] CCCCCCCCCN(CCCCCCCCC)CCN(CCCCCCCCC)CC(=O)N1CCN(C(=O)CN(CCCCCCCCC)CCCCCCCCC)CC1
[Q] CCCCCCCCCCCCN(CCCCCCCCCCCC)CCN(CCCCCCCCCCCC)CCN1CCN(CCN(CCCCCC(=O)OCCCCC)CCCCCC(=O)OCCCCC)CC1
[R] CCCCCCCCCCCCN(CCCCCCCCCCCC)CCN(CCCCCCCCCCCC)CCN1CCN(CCN(CCCCCCCC)CCCCCCCC)CC1
Let's sort these by concentration at 48 h, smallest first. Go ahead? Please respond with the labels ordered as the question requires.
Q, P, R
(Q: 3990 ng/g, P: 22000 ng/g, R: 36800 ng/g)
